assay_name: MM1S myeloma cell viability, profiling panel, resazurin fluorescence, basal, 24 h, PK04 Diversity Set (AID 1174);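 note: MM1S multiple myeloma cell line; test concentration not given here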
assay_setup: called active from +8 up or from −8 down
Active and inactive are the calls of the source.
Classes used: active, inactive

[
  {
    "compound": "O=C1C=C(c2ccccc2)C(=O)c2ccc([C@H]3Oc4ccccc4S(=O)(=O)N4CCC[C@@H]34)cc21",
    "assigned_class": "active"
  },
  {
    "compound": "COC(=O)[C@@]1(Cc2ccc(OC)cc2)[C@H]2c3cc(C(=O)N(C)C)n(Cc4ccc(Cl)c(C(F)(F)F)c4)c3C[C@H]2CN1C(=O)c1ccccc1",
    "assigned_class": "inactive"
  },
  {
    "compound": "COC(=O)[C@@]1(Cc2ccc(F)cc2)[C@H]2c3cc(C(=O)N(C)C)n(CCc4ccc(O)c(OC)c4)c3C[C@H]2CN1C(=O)c1ccccc1",
    "assigned_class": "inactive"
  },
  {
    "compound": "COC(=O)[C@@]1(Cc2ccccc2)[C@@H]2C(=CC(=O)[C@H]2CC(=O)C(=O)N(C)C)CN1C(=O)c1ccccc1",
    "assigned_class": "inactive"
  },
  {
    "compound": "CC(C)(C)OC(=O)CC[C@@]1(C(=O)NCc2ccccc2)N=C(c2ccc(OCCCO)cc2)O[C@@H]1c1ccccc1N=[N+]=[N-]",
    "assigned_class": "inactive"
  },
  {
    "compound": "COC(=O)c1c2oc(c1C(=O)OC)C(=O)N(C)Cc1cn(nn1)C[C@H](Cc1ccccc1)NC(=O)N[C@H](CO)CC2",
    "assigned_class": "inactive"
  },
  {
    "compound": "C=CCOC(=O)[C@H]1[C@@H]2C(=O)O[C@@H](c3ccccc3)[C@@H](c3ccccc3)N2[C@@H](c2ccc(OCCOC(=O)[C@@H]3C[C@@H]4C(=O)N[C@@H](CCCCN(C)C)C(=O)N4[C@@H]3c3ccc(O)cc3)cc2)[C@]12C(=O)Nc1ccccc12",
    "assigned_class": "inactive"
  },
  {
    "compound": "CCOC(=O)C[C@H]1[C@H](OC(=O)c2ccccc2-c2ccccc2)[C@@H](NC(=O)c2ccc(-c3ccccc3)cc2)c2cc(OCCCO)ccc2N1C(=O)c1ccc2ccccc2n1",
    "assigned_class": "inactive"
  },
  {
    "compound": "Cc1ccc(S[C@]2(C(=O)O)CC(=O)N(Cc3ccccc3Cl)[C@@H]2c2ccc(CO)cc2I)cc1",
    "assigned_class": "inactive"
  },
  {
    "compound": "CC(C)OC(=O)C=C1C[C@@H](c2ccc(C(F)(F)F)cc2)O[C@@H](c2ccc(C(F)(F)F)cc2)O1",
    "assigned_class": "inactive"
  },
  {
    "compound": "COCCOC(=O)N1C(=O)[C@@]2(c3cc(C#CCNC(N)=O)ccc31)[C@H](C(=O)N1CCc3cc(OC)c(OC)cc3C1)[C@H]1C(=O)O[C@H](c3ccccc3)[C@H](c3ccccc3)N1[C@@H]2c1ccccc1OCCO",
    "assigned_class": "inactive"
  },
  {
    "compound": "O=C1NC(=O)C2C1C=CC(C(O)c1cccc3ccccc13)N2Nc1ccc(Cl)cc1Cl (stereo not given)",
    "assigned_class": "inactive"
  },
  {
    "compound": "C=CCC(OC(C)=O)[C@@H]1[C@@H](N(Cc2ccc(-c3cccc(C(F)(F)F)c3)o2)C(=O)c2ccc(C)cc2)c2cc(OCCCO)ccc2N1C(=O)c1ccc2ccccc2c1 (stereo not given in full)",
    "assigned_class": "inactive"
  },
  {
    "compound": "CC(C)Cc1ccc(CN2CC[C@@H](NC(=O)Nc3ccccc3)C2)cc1",
    "assigned_class": "active"
  },
  {
    "compound": "CO[C@H]1O[C@H](CO)[C@@H](OC(=O)Nc2ccccc2-c2ccccc2)[C@H](OC(=O)Nc2ccc3c(c2)OCO3)[C@H]1OC(=O)Nc1ccc2c(c1)OCO2",
    "assigned_class": "inactive"
  },
  {
    "compound": "CCOC(=O)C1CCCCN1 (stereo not given)",
    "assigned_class": "inactive"
  },
  {
    "compound": "CCCCCCc1nc(C2CC2)cc2c1[Si](C(C)C)(C(C)C)OC2",
    "assigned_class": "inactive"
  },
  {
    "compound": "C=C[C@@H](COC(C)=O)N(C(=O)OC(C)(C)C)S(=O)(=O)c1ccc(Br)cc1",
    "assigned_class": "inactive"
  },
  {
    "compound": "O=C(NCc1ccccc1)[C@@H]1c2ccccc2C(=O)N(Cc2ccccc2C(F)(F)F)[C@H]1c1ccc(CO)cc1",
    "assigned_class": "inactive"
  },
  {
    "compound": "COc1ccccc1CN1C(=O)c2ccccc2[C@](Cc2ccccc2I)(C(=O)NCC(F)(F)F)[C@@H]1c1ccc(CO)cc1",
    "assigned_class": "inactive"
  },
  {
    "compound": "COC(=O)CCCCCCC(=O)Nc1ccc(NC(=O)CCCC[P+](c2ccccc2)(c2ccccc2)c2ccccc2)cc1",
    "assigned_class": "inactive"
  },
  {
    "compound": "O=C1NC(=O)C2C1C=CC(C(O)c1ccco1)N2Nc1ccccn1 (stereo not given)",
    "assigned_class": "inactive"
  },
  {
    "compound": "O=C(NCC(F)(F)F)[C@@H]1c2ccccc2C(=O)N(Cc2ccccc2C(F)(F)F)[C@H]1c1ccc(CO)cc1",
    "assigned_class": "inactive"
  },
  {
    "compound": "[N-]=[N+]=NCc1ccccc1[C@H]1OC(c2ccc(OCCCO)cc2)=N[C@@]1(CCS(=O)(=O)c1ccccc1)C(=O)N1CCCCC1",
    "assigned_class": "inactive"
  },
  {
    "compound": "CCCCC(O)C1C=CC2C(=O)N(c3ccccc3)C(=O)C2N1Nc1ccc(C(C)C)cc1 (stereo not given)",
    "assigned_class": "inactive"
  }
]
